Where do these numbers come from? They come from ChEMBL document CHEMBL4296182.

# Test system: Acinetobacter baumannii
# assay.procedure: Antibacterial activity against Acinetobacter baumannii ATCC 19606 (CO-ADD:GN_034); MIC in CAMBH media using NBS plates, by Resazurin F(560/590)
# Assay type: functional
# experimental.conditions: Concentration 20 uM, ASSAY_TEST Inhibition of Bacterial Growth, detection method Resazurin, Fluorescence (ex560/em590), MEDIA CAMHB, plate type 384well, CORNING #3640, time 18 hr
Form field: Inhibition (one value per entry).
Show the value, then the unit it is measured in.

See these solved cases before continuing.
>  <compound>
CS(=O)(=O)O.O=C1CCC2(O)[C@@H]3Cc4ccc(O)c5c4[C@]2(CCN3Cc2ccoc2)C1O5 (stereo partly drawn)

>  <Inhibition>
-2.4%

$$$$
>  <compound>
CCC1CCC(C)N(N=O)C1 (stereo not drawn)

>  <Inhibition>
-14.6%

$$$$

We next turn to a different compound, shown below.
Determine from records and report Inhibition for COc1ccccc1[As](=O)(O)CC(O)COc1ccc(Cl)cc1Cl (stereo not drawn) -14.57%
